Origin of the recorded values: patent US20180171001A1

- Tested System: Env of HIV-1 strain 3016.v5.c45 (HIV-1)
- Assay Info: cell-based or functional assay
List of neutralization IC50 values.
Value expressed in µg/mL; do not type the unit.

8ANC195 IgG (antibody, V domains shown) VH: QIHLVQSGTEVKKPGSSVTVSCKAYGVNTFGLYAVNWVRQAPGQSLEYIGQIWRWKSSASHHFRGRVLISAVDLTGSSPPISSLEIKNLTSDDTAVYFCTTTSTYDKWSGLHHDGVMAFSSWGQGTLISVSA VL: DIQMTQSPSTLSASIGDTVRISCRASQSITGNWVAWYQQRPGKAPRLLIYRGAALLGGVPSRFSGSAAGTDFTLTIGNLQAEDFGTFYCQQYDTYPGTFGQGTKVEV: 0.195

--- query ---
Reported neutralization IC50 for γ15κ11 (antibody, V domains shown) VH: QIHLVQSGTEVKKPGSSVTVSCKAYGVNTFGLYAVNWVRQAPGQSLEYIGQIWRWKSSASHHFRGRVIISAVDLTGSSPPISSLEIKNLTSDDTAVYFCTTASTYDKWSGLHHDGVMAFSSWGQGTLISVSA VL: DIQMTQSPSTLSASVGGTVRISCRASQSITGGWLAWYHQRPGKAPRLLIYRGSRLLGGVPSRFSGSAAGTDFTLTIANLQAEDFGTFYCQQYDTYPGTFGQGTKVEVKR : what is it?
1.32
